// provenance: patent US10517889B2

Test system: human SMAD7 mRNA
Experiment: Antisense inhibition of human SMAD7 mRNA expression in Hep3B cells by 5-10-5 MOE gapmers, single concentration, electroporation, RT-PCR (Example 1, Study 1 and 2)
Assay type: cell-based
Conditions: electroporation, 15,000 nM antisense oligonucleotide (Study 2), 5-10-5 MOE gapmers targeting SEQ ID NO: 1 and 2
Strand notation (5' to 3'): a small letter for the sugar, then the base; units joined by * are phosphorothioate-linked, units joined directly phosphodiester-linked; [ ] holds rarer units or linkages, { } end groups; capitals alone tell only the bases. e = 2'-O-(2-methoxyethyl) (MOE); [5mC] = 5-methylcytosine; d = 2'-deoxy (DNA)

substance	output-unit	% inhibition of SMAD7 mRNA expression
771489 (antisense e[5mC]*eA*eA*eA*eG*d[5mC]*dT*dG*dA*dT*d[5mC]*dT*dG*d[5mC]*dA*e[5mC]*eG*eG*eT*eA) [compound 771489]	%	27
771842 (antisense eT*eT*eG*eT*eG*dT*dT*dA*dT*dG*dA*dA*dA*dA*d[5mC]*eA*eA*eA*eA*e[5mC]) [compound 771842]	%	6
771762 (antisense eG*eT*e[5mC]*eA*e[5mC]*d[5mC]*dA*d[5mC]*d[5mC]*dG*dA*dT*dG*d[5mC]*dA*eT*e[5mC]*e[5mC]*eA*eA) [compound 771762]	%	72
771417 (eA*e[5mC]*e[5mC]*eG*eG*d[5mC]*d[5mC]*d[5mC]*d[5mC]*dA*dT*dG*d[5mC]*dG*d[5mC]*eT*e[5mC]*eG*eG*e[5mC]; antisense) [compound 771417]	%	16
771357 (antisense eG*eA*eG*eT*e[5mC]*dA*dG*dG*d[5mC]*dT*d[5mC]*dA*dA*dT*dG*eA*eG*eA*e[5mC]*eT) [compound 771357]	%	16
771521 (antisense e[5mC]*eA*eT*eG*eA*dA*dA*dA*dG*d[5mC]*dA*dA*dG*d[5mC]*dA*e[5mC]*eT*e[5mC]*eA*eG) [compound 771521]	%	33
771450 (antisense e[5mC]*eT*eA*eG*eT*dT*d[5mC]*dG*d[5mC]*dA*dG*dA*dG*dT*d[5mC]*eG*eG*e[5mC]*eT*eA) [compound 771450]	%	45
771410 (eG*e[5mC]*eT*e[5mC]*eG*d[5mC]*d[5mC]*dT*d[5mC]*d[5mC]*dT*d[5mC]*d[5mC]*dT*d[5mC]*e[5mC]*eA*e[5mC]*e[5mC]*eT; antisense) [compound 771410]	%	37
278478 (antisense eA*e[5mC]*eA*eT*eG*dA*d[5mC]*d[5mC]*dT*d[5mC]*d[5mC]*dG*d[5mC]*dA*d[5mC]*eA*e[5mC]*e[5mC]*eA*eT) [compound 278478]	%	18
771560 (antisense e[5mC]*eT*eG*eA*e[5mC]*dA*dA*dG*dT*dG*dA*dA*dA*dT*dG*eA*eT*eG*eA*e[5mC]) [compound 771560]	%	0
771387 (antisense eA*eG*e[5mC]*eA*eT*d[5mC]*dT*dG*dG*dA*d[5mC]*dA*dG*dT*d[5mC]*eT*eG*e[5mC]*eT*eG) [compound 771387]	%	6
771880 (antisense eT*e[5mC]*e[5mC]*e[5mC]*eT*dG*dG*dT*dT*dT*dT*dG*d[5mC]*dA*dG*eG*eT*eG*eG*eT) [compound 771880]	%	29
771778 (antisense eT*eG*eA*eG*eT*dA*dA*dA*d[5mC]*dA*dA*dT*dA*d[5mC]*d[5mC]*e[5mC]*eT*e[5mC]*eA*eG) [compound 771778]	%	66
771802 (antisense e[5mC]*e[5mC]*eT*eT*eG*dA*dG*dA*dT*d[5mC]*d[5mC]*dA*dT*dG*dG*eG*eA*eG*e[5mC]*eA) [compound 771802]	%	40
771491 (antisense eG*eG*e[5mC]*e[5mC]*e[5mC]*d[5mC]*dA*dG*d[5mC]*d[5mC]*d[5mC]*dT*dT*d[5mC]*dA*e[5mC]*eA*eA*eA*eG) [compound 771491]	%	39
771419 (eG*eG*e[5mC]*e[5mC]*eG*d[5mC]*d[5mC]*dG*d[5mC]*d[5mC]*dA*d[5mC]*d[5mC]*dG*dG*e[5mC]*e[5mC]*e[5mC]*e[5mC]*eA; antisense) [compound 771419]	%	37
771777 (antisense e[5mC]*e[5mC]*e[5mC]*eT*e[5mC]*dA*dG*dT*d[5mC]*dT*d[5mC]*dA*dG*dA*dT*eA*eA*e[5mC]*eA*eG) [compound 771777]	%	50
771497 (antisense eG*eA*eA*eG*eA*dT*dG*dA*d[5mC]*d[5mC]*dT*d[5mC]*dT*dA*dG*e[5mC]*e[5mC]*eA*eG*e[5mC]) [compound 771497]	%	0
771514 (antisense eT*eT*eA*eG*e[5mC]*dA*dG*d[5mC]*dA*dA*dA*dG*dT*dA*dG*eT*eT*eT*eG*eA) [compound 771514]	%	19
771704 (antisense e[5mC]*eA*eG*eG*eA*dG*dG*dG*dT*dA*dT*dG*d[5mC]*dA*d[5mC]*eA*e[5mC]*eT*e[5mC]*eT) [compound 771704]	%	32
771936 (antisense eT*eG*eT*eT*eT*d[5mC]*dT*dG*dT*dG*dT*dG*d[5mC]*dA*d[5mC]*eA*eT*eA*e[5mC]*eG) [compound 771936]	%	36
